SYSTEM: T1, human TSLP recombinant protein (human, UniProt Q969D9 29-159, biotinylated in the blocking and cell-binding assays (sites not given))
T1 construct: also called biotinylated human TSLP protein
ASSAY_METHOD_TEXT: ELISA on coated human TSLP
ASSAY_METRIC: pEC50
Please keep in mind that pEC50 is minus log10 of the molar concentration; only the number is needed.

Example cases with answers are listed next.
# BINDER, pEC50
measured = [
    ("80B12 chimeric antibody (antibody, V domains shown) VH: QVQLQQSGPQLVRPGASVKISCKASGYSFTTYWMHWVKQRPGQGLEWIGLIDPSDGEAGLNQNFKDKATLTVDISSRTAYMQISSPTSEDSAVYFCARSLDGYYDYWGQGTTLTVSS VL: DIQMTQSPASLSASVGETVTITCRASEDIYSYLAWYQQKQGKSPQLLVYNAKTLAEGVPSRFSGSGSGTQFSLKINSLQPEDFGSYYCQHFWSTPWTFGGGTKLELK", 9.47),
    ("71G4 chimeric antibody (antibody, V domains shown) VH: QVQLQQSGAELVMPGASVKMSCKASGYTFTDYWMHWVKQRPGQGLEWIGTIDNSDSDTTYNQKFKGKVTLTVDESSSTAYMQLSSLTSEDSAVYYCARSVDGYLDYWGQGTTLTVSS VL: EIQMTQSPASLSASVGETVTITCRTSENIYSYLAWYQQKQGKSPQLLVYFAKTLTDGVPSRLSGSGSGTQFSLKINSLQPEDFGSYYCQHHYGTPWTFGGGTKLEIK", 9.49),
]

As a next step, examine the binder that follows.
Looking up 39G5-H8 chimeric antibody (antibody, V domains shown) VH: QVQLLQSGPQLVRPGASVKISCKASGYSFISYWIHWVKQRPGQGLEWIGIIDPSDSDTSLNQKFKDKATLTVDKSSTTAYIQLSSPTSEDSAVYYCARSLDGYYDYWGQGTTLTVSS VL: DIQMTQSPASLSASVGETVTITCRASENIYSYLAWYQQKQGKSPQLLVYNARTLPEGVPSRFSGSGSGTQFSLKINSLQPEDFGIYYCQHHYTTPWTFGGGTKLEIK , I see its pEC50 listed as 9.82
